Examples of compounds with documented ratio of Nav1.7 potency:Nav 1.5 potency follow.
# study target: human Nav1.5 channels (Homo sapiens, UniProt Q14524)
# Construct: expressed in transfected cells; host or cells: HEK 293
# Sequence (Q14524 whole entry): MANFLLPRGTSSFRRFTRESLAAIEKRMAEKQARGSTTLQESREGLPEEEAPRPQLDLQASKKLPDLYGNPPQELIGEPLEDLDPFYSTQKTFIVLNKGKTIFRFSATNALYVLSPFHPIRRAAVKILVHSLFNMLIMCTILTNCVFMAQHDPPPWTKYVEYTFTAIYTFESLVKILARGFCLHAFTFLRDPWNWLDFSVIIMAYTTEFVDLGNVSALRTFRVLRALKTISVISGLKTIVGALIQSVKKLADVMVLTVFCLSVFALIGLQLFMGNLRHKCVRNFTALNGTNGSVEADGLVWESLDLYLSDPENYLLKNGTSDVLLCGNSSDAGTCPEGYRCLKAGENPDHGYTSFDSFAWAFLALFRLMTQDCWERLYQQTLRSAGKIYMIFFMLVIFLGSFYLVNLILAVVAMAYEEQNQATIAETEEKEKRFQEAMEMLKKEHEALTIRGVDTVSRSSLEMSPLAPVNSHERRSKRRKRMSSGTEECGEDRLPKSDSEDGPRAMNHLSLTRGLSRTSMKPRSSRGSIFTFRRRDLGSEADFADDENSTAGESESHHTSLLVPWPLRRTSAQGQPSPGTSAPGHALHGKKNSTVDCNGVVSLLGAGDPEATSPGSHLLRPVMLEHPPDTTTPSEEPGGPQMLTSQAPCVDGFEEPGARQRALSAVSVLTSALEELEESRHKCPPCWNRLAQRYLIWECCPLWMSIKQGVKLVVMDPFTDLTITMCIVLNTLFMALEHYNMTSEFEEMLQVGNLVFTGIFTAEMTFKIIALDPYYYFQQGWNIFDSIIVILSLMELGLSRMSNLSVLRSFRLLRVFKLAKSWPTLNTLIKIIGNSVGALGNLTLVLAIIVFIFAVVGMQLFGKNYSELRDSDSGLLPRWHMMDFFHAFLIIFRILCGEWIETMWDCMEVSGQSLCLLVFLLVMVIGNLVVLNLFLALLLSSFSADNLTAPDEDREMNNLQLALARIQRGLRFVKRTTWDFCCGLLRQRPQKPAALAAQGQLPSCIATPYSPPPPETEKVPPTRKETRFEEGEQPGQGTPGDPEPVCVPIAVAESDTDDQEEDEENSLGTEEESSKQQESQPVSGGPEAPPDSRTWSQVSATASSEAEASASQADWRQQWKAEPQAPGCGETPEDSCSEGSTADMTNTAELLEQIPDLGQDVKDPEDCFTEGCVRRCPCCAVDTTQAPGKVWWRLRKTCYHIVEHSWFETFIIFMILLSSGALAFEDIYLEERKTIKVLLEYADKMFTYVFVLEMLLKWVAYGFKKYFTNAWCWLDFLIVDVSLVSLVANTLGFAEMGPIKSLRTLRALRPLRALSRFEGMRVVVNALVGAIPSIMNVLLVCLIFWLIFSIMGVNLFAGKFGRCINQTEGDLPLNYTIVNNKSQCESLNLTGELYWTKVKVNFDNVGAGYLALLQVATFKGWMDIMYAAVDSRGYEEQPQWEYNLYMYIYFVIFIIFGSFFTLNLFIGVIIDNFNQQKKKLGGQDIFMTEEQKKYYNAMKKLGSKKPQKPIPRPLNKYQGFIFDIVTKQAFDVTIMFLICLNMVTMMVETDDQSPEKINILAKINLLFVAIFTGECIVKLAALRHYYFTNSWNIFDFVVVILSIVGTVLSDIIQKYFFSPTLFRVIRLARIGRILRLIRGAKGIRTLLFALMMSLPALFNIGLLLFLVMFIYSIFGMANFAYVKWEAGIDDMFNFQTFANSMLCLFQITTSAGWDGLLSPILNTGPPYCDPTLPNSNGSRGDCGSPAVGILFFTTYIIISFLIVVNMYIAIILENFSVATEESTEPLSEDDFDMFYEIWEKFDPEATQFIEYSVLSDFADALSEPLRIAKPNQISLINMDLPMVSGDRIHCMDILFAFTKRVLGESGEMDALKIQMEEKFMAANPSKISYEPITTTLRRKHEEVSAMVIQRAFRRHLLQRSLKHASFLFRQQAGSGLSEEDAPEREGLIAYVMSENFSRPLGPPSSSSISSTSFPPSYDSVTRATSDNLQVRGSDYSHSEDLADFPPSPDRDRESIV
# method notes: IonWorks Quattro automated patch-clamp, Nav1.5 (selectivity versus Nav1.7)
# Assay type: cell-based
# measurement context: selectivity Nav1.7 over Nav1.5, both by IonWorks in HEK 293 cells
Returns: the value as a bare number; no unit string appended.

# example entries with known answers
- chem smiles: "O=S(=O)(Nc1nccs1)c1cc(Cl)c(NC[C@]2(Cc3ccc(Br)cc3)C[C@H](O)CN2)cc1F"
  study target: "human Nav1.5 channels (Homo sapiens, UniProt Q14524)"
  val: 84
- chem smiles: "O=S(=O)(Nc1nccs1)c1cc(Cl)c(NC[C@]2(Cc3cccc(Br)c3)C[C@H](O)CN2)cc1F"
  study target: "human Nav1.5 channels (Homo sapiens, UniProt Q14524)"
  val: 1220

*Q* Need ratio of Nav1.7 potency:Nav 1.5 potency of O=S(=O)(Nc1nccs1)c1cc(Cl)c(NC[C@]2(Cc3ccc(-c4ccn[nH]4)cc3)C[C@H](O)CN2)cc1F , thanks.
*A* 367

*Q* Need ratio of Nav1.7 potency:Nav 1.5 potency of O=S(=O)(Nc1nccs1)c1cc(Cl)c(NC[C@]2(Cc3cccc(F)c3)C[C@H](O)CN2)cc1F , thanks.
*A* 1714

*Q* Need ratio of Nav1.7 potency:Nav 1.5 potency of O=S(=O)(Nc1nccs1)c1cc(Cl)c(NC[C@]2(Cc3ccc(-c4ccccn4)cc3)C[C@H](O)CN2)cc1F , thanks.
*A* 543

*Q* Need ratio of Nav1.7 potency:Nav 1.5 potency of NCc1ccc(C[C@@]2(CNc3cc(F)c(S(=O)(=O)Nc4nccs4)cc3Cl)C[C@H](O)CN2)cc1 , thanks.
*A* 868

*Q* Need ratio of Nav1.7 potency:Nav 1.5 potency of N#Cc1ccc(C[C@@]2(CNc3cc(F)c(S(=O)(=O)Nc4nccs4)cc3Cl)C[C@H](O)CN2)cc1 , thanks.
*A* 3000

*Q* Need ratio of Nav1.7 potency:Nav 1.5 potency of COc1cccc(C[C@@]2(CNc3cc(F)c(S(=O)(=O)Nc4nccs4)cc3Cl)C[C@H](O)CN2)c1 , thanks.
*A* 4714
